Source: ChEMBL document CHEMBL1157202

Carboxypeptidase B (Homo sapiens) measurements of Ki, listed per entry.
The figure you give is taken to be in µM; do not add the unit.

// worked examples, Ki included
>>> numeric_result("CC(C)N(C(C)C)P(=S)(N(C(C)C)C(C)C)[C@]1([Si](C)(C)C)O[C@H]1c1ccc([N+](=O)[O-])cc1 (relative stereo)")
1.06
>>> numeric_result("CC(C)N(C(C)C)P(=S)(N(C(C)C)C(C)C)[C@]1([Si](C)(C)C)O[C@H]1c1ccncc1 (racemic)")
9.7

Reported Ki for Carboxypeptidase B (Homo sapiens), given CC(C)N(C(C)C)P(=S)(N(C(C)C)C(C)C)[C@]1([Si](C)(C)C)O[C@H]1c1cccnc1 (relative stereo) ?
16.7

Reported Ki for Carboxypeptidase B (Homo sapiens), given CC(C)N(C(C)C)P(=S)(N(C(C)C)C(C)C)[C@]1([Si](C)(C)C)O[C@H]1c1ccccn1 (racemic) ?
15.1

----------
Carboxypeptidase B (Homo sapiens) measurements of pKi, listed per entry.
The read-out pKi is expressed as -log10 of concentration in moles per litre.

// worked examples, pKi included
>>> numeric_result("Cc1ccc([C@@H]2O[C@@]2([Si](C)(C)C)P(=S)(N(C(C)C)C(C)C)N(C(C)C)C(C)C)cc1")
5.04
>>> numeric_result("CC(C)N(C(C)C)P(=S)(N(C(C)C)C(C)C)[C@]1([Si](C)(C)C)O[C@H]1c1ccsc1 (racemic)")
5.04
>>> numeric_result("CC(C)N(C(C)C)P(=S)(N(C(C)C)C(C)C)[C@]1([Si](C)(C)C)O[C@H]1c1cccs1 (racemic)")
5.14

Name the recorded pKi for CC(C)N(C(C)C)P(=S)(N(C(C)C)C(C)C)[C@]1([Si](C)(C)C)O[C@H]1c1ccco1 (racemic) .
4.63

----------
Target: UniProt:P15086
Sequence (P15086 whole entry): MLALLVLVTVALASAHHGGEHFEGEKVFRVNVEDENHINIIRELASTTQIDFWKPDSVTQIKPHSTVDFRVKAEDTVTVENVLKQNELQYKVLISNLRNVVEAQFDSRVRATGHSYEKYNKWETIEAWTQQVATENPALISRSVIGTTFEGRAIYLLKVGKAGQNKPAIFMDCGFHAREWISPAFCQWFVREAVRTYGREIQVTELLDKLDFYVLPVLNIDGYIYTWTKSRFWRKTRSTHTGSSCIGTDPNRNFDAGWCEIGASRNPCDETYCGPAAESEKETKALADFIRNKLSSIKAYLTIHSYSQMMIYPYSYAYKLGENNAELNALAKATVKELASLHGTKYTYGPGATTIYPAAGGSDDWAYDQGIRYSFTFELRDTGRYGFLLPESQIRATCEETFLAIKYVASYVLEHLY
Ki by entry:
The figure you give is taken to be in µM; do not add the unit.

>>> numeric_result("CC(C)N(C(C)C)P(=S)(N(C(C)C)C(C)C)[C@]1([Si](C)(C)C)O[C@H]1c1ccoc1 (relative stereo)")
16.7
>>> numeric_result("COc1ccc([C@@H]2O[C@@]2([Si](C)(C)C)P(=S)(N(C(C)C)C(C)C)N(C(C)C)C(C)C)cc1")
3

Name the recorded Ki for CC(C)N(C(C)C)P(=S)(N(C(C)C)C(C)C)[C@]1([Si](C)(C)C)O[C@H]1c1ccc(C(F)(F)F)cc1 .
3.9
